Experimental Details: Human HepG2 cell viability assay in 384 well format
Type: toxicity, cell-based
Design: dose 125 nL, time 70.5 hour; concentration not given beside the values
Stated Conditions: HepG2 cells, read-out: Inhibition
Each entry below carries its recorded cytotoxicity at 70.5 h.
Quick note: give the figure in %, leave out the unit.

{"Compound": "COc1c(CNC2CCCc3ccccc32)c(C)nn1C (centres undefined)", "cytotoxicity at 70.5 h (%)": -8}

Could you please provide reported cytotoxicity at 70.5 h for "COCCCN1C(=O)CC[C@H]2CN(c3ccc(C(N)=O)cn3)CC[C@H]21" ? Thanks!
4.03

Report measured cytotoxicity at 70.5 h; entry is Cc1ccc(CNC(=O)CN2CCCCC2Cn2cncn2)s1 (centres undefined)
-7.67

Report measured cytotoxicity at 70.5 h; entry is COc1nc2ccccc2cc1CN1CCC(CNS(C)(=O)=O)C1 (centres undefined)
0.512

Identify measured cytotoxicity at 70.5 h associated with "COc1cccc([C@H]2CN(CCCS(=O)(=O)N(C)C)C[C@@H]2N)c1"
-3.42

Report cytotoxicity at 70.5 h, nothing else, for this compound: "COCCS(=O)(=O)N(Cc1ccsc1)c1ccccc1"
2.67

====

cytotoxicity at 70.5 h values by entry
Experimental Details: Human HepG2 cell viability assay in 384 well format
Type: toxicity, cell-based
Design: dose 125 nL, time 70.5 hour; concentration not given beside the values
Stated Conditions: HepG2 cells, read-out: Inhibition
Reply numerically in %, unit not repeated.

Worked set:
{"Molecule": "Cc1nc(N2CCCC2)nc2c1CCN(C(=O)C1CCCCC1)CC2", "cytotoxicity at 70.5 h [%]": -0.729}
{"Molecule": "CCc1ncc(C(=O)N2CCn3c(CC)nnc3C2)s1", "cytotoxicity at 70.5 h [%]": -13.9}

Switching to the query record.
Entry "Cc1cnc(NC(=O)c2csc(NC3CCCC3)n2)s1" needs its cytotoxicity at 70.5 h filled in; supply it.
43.8

====

Experimental Details: Human HepG2 cell viability assay in 384 well format
Assay type: toxicity, cell-based
Parameters: dose 125 nL, time 70.5 hour; concentration not given beside the values
Stated Conditions: HepG2 cells, read-out: Inhibition
Parameter Measured: cytotoxicity at 70.5 h (%)
Give just the number in %; leave the unit off.

These solved cases illustrate the format of a correct answer.
{"Molecule": "COCCS(=O)(=O)NC(C)c1ccccc1Cl (centres undefined)", "Value Unit": "%", "cytotoxicity at 70.5 h": -2.47}
{"Molecule": "Cc1nc(C)n(C2CCCN(C(=O)c3cccc4cn[nH]c34)C2)n1 (centres undefined)", "Value Unit": "%", "cytotoxicity at 70.5 h": -13.2}
{"Molecule": "CC(C)OCCNC1(c2ccc(Cl)cc2)CCOCC1", "Value Unit": "%", "cytotoxicity at 70.5 h": -0.58}

Now turn to the next molecule.
For the molecule "Cc1ncsc1CN1C[C@@H](OCC2CC2)[C@H]2OCCC[C@H]21" , give its reported cytotoxicity at 70.5 h.
-5.13

====

Experimental Details: Human HepG2 cell viability assay in 384 well format
Format: toxicity, cell-based
Set-up: dose 125 nL, time 70.5 hour; concentration not given beside the values
Stated Conditions: HepG2 cells, read-out: Inhibition
Parameter Measured: cytotoxicity at 70.5 h (%)
Field: numeric (%). Do not append units.

Use the examples below as a reference point.
{"Compound": "CC(C)c1nc(C2CCCN2CCS(=O)(=O)c2ccccc2)no1 (stereo unspecified)", "Value Unit": "%", "cytotoxicity at 70.5 h": 2.5}
{"Compound": "O=C1CC(c2cccc(Cl)c2)c2snc(C(=O)O)c2N1 (stereo unspecified)", "Value Unit": "%", "cytotoxicity at 70.5 h": -5.92}
{"Compound": "COc1c(C2CCCN2CC(=O)NCc2ccccn2)c(C)nn1C (stereo unspecified)", "Value Unit": "%", "cytotoxicity at 70.5 h": -11.4}
{"Compound": "Cc1cnc(NCc2csc(C(C)C)n2)nc1-c1cnn(C)c1", "Value Unit": "%", "cytotoxicity at 70.5 h": -14.9}
{"Compound": "CNC(=O)N1CCCCC1c1nnc2n1CCCC2 (stereo unspecified)", "Value Unit": "%", "cytotoxicity at 70.5 h": -0.585}

Would you kindly look at the next entry?
# return recorded cytotoxicity at 70.5 h for input Cc1nc(CN(C)C2CCN(Cc3ccc4c(c3)OCCO4)C2)no1 (stereo unspecified)
-2.2

====

Experimental Details: Human HepG2 cell viability assay in 384 well format
Type: toxicity, cell-based
Design: dose 125 nL, time 70.5 hour; concentration not given beside the values
Stated Conditions: HepG2 cells, read-out: Inhibition
Listed here: items and their measured cytotoxicity at 70.5 h.
Provide only the numeric value, understood in %.

{"Compound": "NCCn1cc(C(=O)N2CCNC(=O)C2c2cccc(F)c2)nn1 (configuration not stated)", "Value Unit": "%", "Observed Measurement": -11.9}
{"Compound": "O=C(C1=CCCC1)N1CCC2(CC1)CC(Oc1cccnc1)CO2 (configuration not stated)", "Value Unit": "%", "Observed Measurement": -0.424}
{"Compound": "O=S(=O)(NCCC(O)c1cccs1)c1c(F)cccc1F (configuration not stated)", "Value Unit": "%", "Observed Measurement": -14.6}
{"Compound": "O=C(O)CCc1cc2n(n1)CCCN(C(=O)c1cc3ccccc3s1)C2", "Value Unit": "%", "Observed Measurement": 30}
{"Compound": "Cn1ccc(NC(=O)NC2CCCN(c3ccccc3Cl)C2=O)n1 (configuration not stated)", "Value Unit": "%", "Observed Measurement": -0.238}

Specify measured cytotoxicity at 70.5 h for "CC(C)(C)c1noc(CN2CCN(C(=O)c3ccco3)CC2)n1" .
14.9

Provide measured cytotoxicity at 70.5 h value, entry: CCNC(=O)N(C)C(c1ccccc1)c1ccccn1 (configuration not stated)
-4.29

Give the reported cytotoxicity at 70.5 h for this compound. "CN1CCC2(CCC1=O)CCN(C(=O)Cc1ccc(O)c(F)c1)CC2"
2.31

Given "COCCCC(=O)NC1(c2cccc(Br)c2)CC1" , respond with its cytotoxicity at 70.5 h.
8.13

Name the recorded cytotoxicity at 70.5 h of the item "COc1cccc(-c2cc(CN)ccc2F)c1F" in your answer.
-8.44

====

Experimental Details: Human HepG2 cell viability assay in 384 well format
Assay type: toxicity, cell-based
Set-up: dose 125 nL, time 70.5 hour; concentration not given beside the values
Stated Conditions: HepG2 cells, read-out: Inhibition
Each record here notes measured cytotoxicity at 70.5 h.
Your answer is read as %, so omit the unit and give the number.

The following compounds have reported results that may help.
{"Compound": "Cc1ccc(C(C)(O)CNC(=O)c2scnc2C)o1 (stereo unspecified)", "Value Unit": "%", "cytotoxicity at 70.5 h": -3.68}
{"Compound": "c1cncc(-c2nnc(C3(c4ccc5c(c4)OCO5)CCOCC3)o2)c1", "Value Unit": "%", "cytotoxicity at 70.5 h": -15.4}
{"Compound": "O=C([C@H]1COC[C@H]2CN(c3ccncn3)C[C@H]21)N1CCCC1", "Value Unit": "%", "cytotoxicity at 70.5 h": 13.9}
{"Compound": "O=c1c(NCCNCCO)c(N2CCN(Cc3ccccc3)CC2)c1=O", "Value Unit": "%", "cytotoxicity at 70.5 h": -3.52}
{"Compound": "O=C(NCc1ccc(F)cc1)NCC1(N2CCOCC2)CCSC1 (stereo unspecified)", "Value Unit": "%", "cytotoxicity at 70.5 h": 7.3}
{"Compound": "Cc1ccc2c(n1)N(C)CCN(Cc1ccco1)C2", "Value Unit": "%", "cytotoxicity at 70.5 h": -1.42}
{"Compound": "Cc1nccn1CCCC(=O)N1CCC2(CCC(=O)N(C(C)C)C2)CC1", "Value Unit": "%", "cytotoxicity at 70.5 h": -4.22}
{"Compound": "Cc1cc(C)n(C2CCCN(C(=O)Cc3ccc(C#N)cc3)C2)n1 (stereo unspecified)", "Value Unit": "%", "cytotoxicity at 70.5 h": -14.4}
{"Compound": "O=C(NC1CCN(c2ncccn2)CC1)c1cc2c([nH]c1=O)CCC2", "Value Unit": "%", "cytotoxicity at 70.5 h": -10.7}
{"Compound": "Cc1cnn(CCC(=O)N2CCN(C(=O)C3CC3)[C@@H]3CS(=O)(=O)C[C@@H]32)c1", "Value Unit": "%", "cytotoxicity at 70.5 h": -5.71}

Kindly review the next compound as well.
Identify measured cytotoxicity at 70.5 h associated with "CCC(=O)Nc1ccc2c(c1)C1(CCOCC1)CN2CCOC"
13.5

====

Consider the following molecules and their measured cytotoxicity at 70.5 h readings.
Experimental Details: Human HepG2 cell viability assay in 384 well format
Type: toxicity, cell-based
Set-up: dose 125 nL, time 70.5 hour; concentration not given beside the values
Stated Conditions: HepG2 cells, read-out: Inhibition
Just the number please, in %, no unit attached.

Illustrative cases are given below, each with its answer.
{"Molecule": "O=C(CCNC(=O)NC1CCN(C2CC2)CC1)NCc1ccccc1", "Value Unit": "%", "cytotoxicity at 70.5 h": -3.29}
{"Molecule": "COc1ccc2c(c1)CN(CC1CC1)C(=O)CCN2CC(C)(C)O", "Value Unit": "%", "cytotoxicity at 70.5 h": 0.185}
{"Molecule": "Cn1ccc2c(-c3ccc(NC4CC4)nn3)ccnc21", "Value Unit": "%", "cytotoxicity at 70.5 h": -5.5}

Read off the recorded cytotoxicity at 70.5 h for CC(C)C(=O)N1CCCC(Cc2ccccn2)C1 (stereo not drawn)
-1.35

Indicate the recorded cytotoxicity at 70.5 h value for this molecule: CC(=O)N(C)C1CCCc2nc(C)sc21 (stereo not drawn)
-11
